measurement.target: T1, Cynomolgus monkey latent myostatin (cynomolgus monkey, UniProt Q95J86 25-266; Q95J86 267-375)
T1 construct: Latent form = complex of two propeptides and the mature dimer; also called Cyno latent myostatin
T1 sequence 1: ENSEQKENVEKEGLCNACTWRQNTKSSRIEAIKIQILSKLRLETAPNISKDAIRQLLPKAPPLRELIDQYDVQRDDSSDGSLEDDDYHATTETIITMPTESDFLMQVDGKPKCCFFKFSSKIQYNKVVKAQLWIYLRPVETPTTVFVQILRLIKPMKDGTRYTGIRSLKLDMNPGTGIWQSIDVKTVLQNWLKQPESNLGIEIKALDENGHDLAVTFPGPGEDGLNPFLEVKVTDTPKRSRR
T1 sequence 2: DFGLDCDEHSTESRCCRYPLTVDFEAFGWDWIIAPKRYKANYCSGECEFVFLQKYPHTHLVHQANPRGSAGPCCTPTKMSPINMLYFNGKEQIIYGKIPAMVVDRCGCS
experiment.summary: SPR (BIACORE T200) 37C, pH 7.4, antibody captured by ProA/G
readout.name: Kd (nM)
Number in nM, nothing else.

Examples with answers:
>>> assay_value("MS_M103205H1186-SG1/M103202L889-SK1 (antibody, human IgG1, kappa, V domains shown, also called MS1032LO18-SG1) VH: QVTLKESGPVLVKPTETLTLTCTVSGIDLSHDDISWVRQAPGKGLEWVGIISYAGKKYYASWAKGRLTISKDTSKNQVVLTMTNMDPVDTATYYCARGVPAYSHGGDLWGQGTLVTVSS VL: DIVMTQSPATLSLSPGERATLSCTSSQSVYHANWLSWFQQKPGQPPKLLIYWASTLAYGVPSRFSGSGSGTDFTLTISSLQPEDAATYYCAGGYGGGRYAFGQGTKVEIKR")
0.354
>>> assay_value("MS_M103205H1057-SG1/M103202L889-SK1 (antibody, human IgG1, kappa, V domains shown, also called MS1032LO12-SG1) VH: QVTLKESGPVLVKPTETLTLTCTVSGIDLSHTDISWVRQAPGKGLEWVGIISYAGSKYKASWAKGRLTISKDTSKNQVVLTMTNMDPVDTATYYCARGVPAYSHGGDLWGQGTLVTVSS VL: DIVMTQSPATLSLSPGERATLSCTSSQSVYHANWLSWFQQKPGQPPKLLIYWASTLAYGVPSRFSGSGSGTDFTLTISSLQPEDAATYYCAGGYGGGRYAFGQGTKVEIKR")
0.492

Give its Kd value. Item: MS_M103240H1246-SG1/M103202L1045-SK1 (antibody, human IgG1, kappa, V domains shown, also called MS1032LO25-SG1) VH: QVQLVESGGGLVQPGGSLRLSCAVSGIDLSHEDISWVRQAPGKGLEWVSIISYAGSKYYASWAKGRLTISKDTSKNQVVLTMTNMDPVDTATYYCARGVPAYSHGGDLWGQGTLVTVSS VL: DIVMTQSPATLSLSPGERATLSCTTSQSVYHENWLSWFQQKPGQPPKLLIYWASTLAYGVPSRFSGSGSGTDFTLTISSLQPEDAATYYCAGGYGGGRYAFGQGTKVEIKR
0.34
